measurement_target: EP2 (Homo sapiens)
Sequence (P43116 whole entry): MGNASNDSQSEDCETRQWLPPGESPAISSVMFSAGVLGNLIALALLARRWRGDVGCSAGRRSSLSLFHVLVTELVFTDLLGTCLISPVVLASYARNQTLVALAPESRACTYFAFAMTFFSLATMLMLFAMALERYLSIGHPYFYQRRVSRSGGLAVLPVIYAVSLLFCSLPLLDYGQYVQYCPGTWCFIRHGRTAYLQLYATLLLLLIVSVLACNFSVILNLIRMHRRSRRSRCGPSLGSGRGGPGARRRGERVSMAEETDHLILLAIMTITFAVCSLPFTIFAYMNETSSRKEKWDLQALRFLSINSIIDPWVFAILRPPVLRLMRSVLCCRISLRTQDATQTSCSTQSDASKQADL
procedure_details: EP2 cAMP assay
Type: cell-based
Text: U.S. patent application Ser. No. 11/553,143, filed on Oct. 26, 2006, incorporated by reference herein, describes the methods used to obtain the in vitro data in the table below.
measurement_kind: pEC50
Numbers only, as −log10 of the molar value.

- smiles_str: "O=C(O)c1ccc(CCC[C@H]2CCC(=O)N2CCc2cc(Cl)cc(Cl)c2)s1"
  pEC50: 8.66

Pending molecule:
INPUT: So what's the measured pEC50 for this one? O=C(O)c1ccc(COC[C@H]2CCC(=O)N2CCc2cc(Cl)cc(Cl)c2)s1
OUTPUT: 8.40
